Observed pIC50, system Androgen receptor (Homo sapiens, UniProt P10275).
pIC50: −log10 of the molar value.
Measured Metric: pIC50

1. CC(C)C(=O)N1C[C@@]2(C)O[C@@](C)(C1)[C@@H]1C(=O)N(c3ccc(C#N)c(C(F)(F)F)c3)C(=O)[C@@H]12	5.79
2. CCCN1C[C@@]2(C)O[C@@](C)(C1)[C@@H]1C(=O)N(c3ccc(C#N)c(C(F)(F)F)c3)C(=O)[C@@H]12	7.60
3. C[C@]12CN(C(=O)Nc3ccccc3)C[C@](C)(O1)[C@@H]1C(=O)N(c3ccc(C#N)c(C(F)(F)F)c3)C(=O)[C@@H]12	6.91
4. CCC(=O)N1C[C@@]2(C)O[C@@](C)(C1)[C@@H]1C(=O)N(c3ccc(C#N)c(C(F)(F)F)c3)C(=O)[C@@H]12	6.26
5. C[C@]12CN(C(=O)Nc3ccc(F)cc3)C[C@](C)(O1)[C@@H]1C(=O)N(c3ccc(C#N)c(C(F)(F)F)c3)C(=O)[C@@H]12	6.98
6. C[C@]12CN(c3cccc(S(N)(=O)=O)c3)C[C@](C)(O1)[C@@H]1C(=O)N(c3ccc(C#N)c(C(F)(F)F)c3)C(=O)[C@@H]12	6.47
7. CON1C[C@@]2(C)O[C@@](C)(C1)[C@@H]1C(=O)N(c3ccc(C#N)c(C(F)(F)F)c3)C(=O)[C@@H]12	6.75
8. CCCOC(=O)N1C[C@@]2(C)O[C@@](C)(C1)[C@@H]1C(=O)N(c3ccc(C#N)c(C(F)(F)F)c3)C(=O)[C@@H]12	7.27
9. C[C@]12CN(c3ncccn3)C[C@](C)(O1)[C@@H]1C(=O)N(c3ccc(C#N)c(C(F)(F)F)c3)C(=O)[C@@H]12	6.42
10. CCS(=O)(=O)N1C[C@@]2(C)O[C@@](C)(C1)[C@@H]1C(=O)N(c3ccc(C#N)c(C(F)(F)F)c3)C(=O)[C@@H]12	6.22
11. CC(C)NC(=O)N1C[C@@]2(C)O[C@@](C)(C1)[C@@H]1C(=O)N(c3ccc(C#N)c(C(F)(F)F)c3)C(=O)[C@@H]12	5.34
12. CC(C)OC(=O)N1C[C@@]2(C)O[C@@](C)(C1)[C@@H]1C(=O)N(c3ccc(C#N)c(C(F)(F)F)c3)C(=O)[C@@H]12	7.16
13. C[C@]12CN(c3cccc(S(C)(=O)=O)c3)C[C@](C)(O1)[C@@H]1C(=O)N(c3ccc(C#N)c(C(F)(F)F)c3)C(=O)[C@@H]12	6.82
14. C[C@]12CN(S(=O)(=O)c3ccccc3)C[C@](C)(O1)[C@@H]1C(=O)N(c3ccc(C#N)c(C(F)(F)F)c3)C(=O)[C@@H]12	6.01
15. CCNC(=O)N1C[C@@]2(C)O[C@@](C)(C1)[C@@H]1C(=O)N(c3ccc(C#N)c(C(F)(F)F)c3)C(=O)[C@@H]12	5.84
16. CCOC(=O)N1C[C@@]2(C)O[C@@](C)(C1)[C@@H]1C(=O)N(c3ccc(C#N)c(C(F)(F)F)c3)C(=O)[C@@H]12	6.23
17. CC(C)[N+]1([O-])C(=O)[C@]2(C)O[C@](C)(C1=O)[C@H]1C(=O)N(c3ccc(C#N)c(C(F)(F)F)c3)C(=O)[C@H]12 (some centres not stated)	5.30
18. C[C@]12CN(O)C[C@](C)(O1)[C@@H]1C(=O)N(c3ccc(C#N)c(C(F)(F)F)c3)C(=O)[C@@H]12	5.89
19. C[C@]12CN(S(C)(=O)=O)C[C@](C)(O1)[C@@H]1C(=O)N(c3ccc(C#N)c(C(F)(F)F)c3)C(=O)[C@@H]12	5.45
20. C[C@]12CN(c3cccc(C(N)=O)c3)C[C@](C)(O1)[C@@H]1C(=O)N(c3ccc(C#N)c(C(F)(F)F)c3)C(=O)[C@@H]12	6.90
